Hi there, I'd appreciate the recorded CC50 at 7 days for every entry that follows.
assay: Compound cytotoxicity in Vero cells (MTS); format: cell-based; settings: African green monkey (Cercopithecus aethiops), concentration resulting in 50% cell death, read-out: TC50

What does the record list as CC50 at 7 days for N#C[C@@]1(c2ccc3c(N)ncnn23)O[C@H](CO)[C@@H](O)[C@H]1O ?
> 30 µM

Okay, and C[C@@]1(c2ccc3c(N)ncnn23)O[C@H](CO)[C@@H](O)[C@H]1O ?
> 30 µM

====

Hi there, I'd appreciate the recorded CC50 at 4 days for every entry that follows.
assay: Cytotoxicity in uninfected Hep2 cells; assay type: cell-based; conditions: human, CellTiter Glo

What does the record list as CC50 at 4 days for C[C@@]1(c2ccc3c(N)ncnn23)O[C@H](CO)[C@@H](O)[C@H]1O ?
92 µM

Okay, and CCOC(=O)[C@H](C)NP(=O)(OC[C@H]1O[C@@](C#N)(c2ccc3c(N)ncnn23)[C@H](O)[C@@H]1O)Oc1ccccc1 (stereo partly shown) ?
47 µM

Okay, and C#C[C@@]1(c2ccc3c(N)ncnn23)O[C@H](COP(=O)(OCCSC(=O)C(C)(C)C)OCCSC(=O)C(C)(C)C)[C@@H](O)[C@H]1O ?
> 100 µM

Okay, and N#C[C@@]1(c2ccc3c(N)ncnn23)O[C@H](CO)[C@@H](O)[C@H]1O ?
> 100 µM

Okay, and CCOC(=O)[C@H](C)NP(=O)(N[C@@H](C)C(=O)OCC)OC[C@H]1O[C@@](C#N)(c2ccc3c(N)ncnn23)[C@H](O)[C@@H]1O ?
> 100 µM

Okay, and CC(C)(C)C(=O)SCCOP(=O)(OCCSC(=O)C(C)(C)C)OC[C@H]1O[C@@](C#N)(c2ccc3c(N)ncnn23)[C@H](O)[C@@H]1O ?
> 100 µM

Okay, and C#C[C@@]1(c2ccc3c(N)ncnn23)O[C@H](CO)[C@@H](O)[C@H]1O ?
> 100 µM

====

target: RSV ribonucleoprotein (RNP) complexes (Human respiratory syncytial virus A, UniProt P28887); construct: The supernatant (S3) fraction, containing the enriched RSV RNP complexes, was collected; endogenous in cells; host or cells: HEp-2 cells infected with RSV A2; crude detergent-extracted S3 fraction; assay: RSV RNP transcription assay; format: biochemical, RSV A2; conditions: reduction of total radiolabled transcripts by 50%, 90 minute incubation at 30° C.
Sequence (P28887 whole entry, looked up, one chain of several): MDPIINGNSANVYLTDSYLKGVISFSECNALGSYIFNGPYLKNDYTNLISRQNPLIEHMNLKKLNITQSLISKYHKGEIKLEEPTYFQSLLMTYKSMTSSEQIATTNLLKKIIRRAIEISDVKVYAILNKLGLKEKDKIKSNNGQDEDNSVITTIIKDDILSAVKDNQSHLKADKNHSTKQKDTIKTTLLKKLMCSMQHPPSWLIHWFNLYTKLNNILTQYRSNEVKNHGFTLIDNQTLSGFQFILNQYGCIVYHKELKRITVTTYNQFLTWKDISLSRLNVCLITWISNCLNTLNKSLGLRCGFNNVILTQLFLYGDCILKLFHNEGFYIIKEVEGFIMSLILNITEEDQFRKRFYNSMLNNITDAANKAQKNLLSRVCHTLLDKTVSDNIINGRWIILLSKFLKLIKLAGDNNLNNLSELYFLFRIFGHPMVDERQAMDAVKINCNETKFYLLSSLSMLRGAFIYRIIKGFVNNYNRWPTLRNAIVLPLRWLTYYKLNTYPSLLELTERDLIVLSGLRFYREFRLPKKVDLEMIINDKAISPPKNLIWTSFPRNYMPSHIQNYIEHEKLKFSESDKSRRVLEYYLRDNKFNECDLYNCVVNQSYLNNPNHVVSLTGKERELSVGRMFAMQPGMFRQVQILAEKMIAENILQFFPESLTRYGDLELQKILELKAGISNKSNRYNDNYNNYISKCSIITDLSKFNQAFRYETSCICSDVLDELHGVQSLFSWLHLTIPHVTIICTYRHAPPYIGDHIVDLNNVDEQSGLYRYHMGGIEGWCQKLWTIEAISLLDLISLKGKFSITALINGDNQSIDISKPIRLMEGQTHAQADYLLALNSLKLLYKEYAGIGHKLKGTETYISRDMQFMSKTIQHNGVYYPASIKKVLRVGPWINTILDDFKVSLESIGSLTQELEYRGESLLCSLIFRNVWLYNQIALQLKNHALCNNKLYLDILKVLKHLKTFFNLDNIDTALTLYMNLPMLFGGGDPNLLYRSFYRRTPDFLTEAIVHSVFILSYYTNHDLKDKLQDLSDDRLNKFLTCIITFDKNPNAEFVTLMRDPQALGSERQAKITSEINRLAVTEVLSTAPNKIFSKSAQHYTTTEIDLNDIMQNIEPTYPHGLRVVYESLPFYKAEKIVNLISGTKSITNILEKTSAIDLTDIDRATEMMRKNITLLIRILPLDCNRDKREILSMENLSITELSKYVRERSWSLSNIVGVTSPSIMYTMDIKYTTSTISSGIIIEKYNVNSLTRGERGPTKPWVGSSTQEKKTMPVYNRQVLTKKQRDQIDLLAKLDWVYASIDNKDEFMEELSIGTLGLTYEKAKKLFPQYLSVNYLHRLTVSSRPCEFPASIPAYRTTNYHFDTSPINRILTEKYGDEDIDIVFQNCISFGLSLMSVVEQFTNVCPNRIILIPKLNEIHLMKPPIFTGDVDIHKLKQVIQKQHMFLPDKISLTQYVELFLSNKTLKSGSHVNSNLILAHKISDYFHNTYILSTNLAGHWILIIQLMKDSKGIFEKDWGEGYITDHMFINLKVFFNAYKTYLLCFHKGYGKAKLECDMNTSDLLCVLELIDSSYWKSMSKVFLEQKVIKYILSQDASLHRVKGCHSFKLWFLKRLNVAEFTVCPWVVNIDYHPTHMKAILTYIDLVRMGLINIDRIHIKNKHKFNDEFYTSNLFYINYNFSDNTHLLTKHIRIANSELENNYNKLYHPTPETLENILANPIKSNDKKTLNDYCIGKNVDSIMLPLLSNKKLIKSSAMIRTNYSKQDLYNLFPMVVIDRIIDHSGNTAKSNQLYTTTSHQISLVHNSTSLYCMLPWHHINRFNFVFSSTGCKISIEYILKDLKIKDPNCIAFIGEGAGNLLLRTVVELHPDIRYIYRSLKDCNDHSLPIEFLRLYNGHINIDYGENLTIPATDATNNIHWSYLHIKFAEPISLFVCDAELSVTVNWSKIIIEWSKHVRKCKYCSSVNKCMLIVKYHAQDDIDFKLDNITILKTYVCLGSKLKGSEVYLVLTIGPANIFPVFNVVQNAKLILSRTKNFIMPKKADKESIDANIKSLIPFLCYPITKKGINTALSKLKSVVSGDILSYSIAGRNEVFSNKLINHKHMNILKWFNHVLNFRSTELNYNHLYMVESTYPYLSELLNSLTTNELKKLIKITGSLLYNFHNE
recordedEndpoint: pIC50
FYI, pIC50 means -log10 of a concentration in mol per litre.

What does the record list as pIC50 for C#C[C@@]1(c2ccc3c(N)ncnn23)O[C@H](COP(=O)(O)OP(=O)(O)OP(=O)(O)O)[C@@H](O)[C@H]1O ?
5.80

Okay, and N#C[C@@]1(c2ccc3c(N)ncnn23)O[C@H](COP(=O)(O)OP(=O)(O)OP(=O)(O)O)[C@@H](O)[C@H]1F ?
6.10

Okay, and C[C@@]1(c2ccc3c(N)ncnn23)O[C@H](COP(=O)(O)OP(=O)(O)OP(=O)(O)O)[C@@H](O)[C@H]1O ?
5.82

Okay, and C[C@@]1(c2ccc3c(N)ncnn23)O[C@H](COP(=O)(O)OP(=O)(O)OP(=O)(O)O)[C@@H](O)[C@H]1F ?
5.44

====

Hi there, I'd appreciate the recorded pIC50 for every entry that follows.
Tested on: Parainfluenza 3 strain C 243
Test: Parainfluenza cytoprotection assay in Vero cells
Type: cell-based
Conditions: 168 h, Parainfluenza 3 strain C 243, 7 days, MTS
Method: The Parainfluenza Cytoprotection assay uses Vero cells and Parainfluenza 3 strain C 243. Briefly virus and cells are mixed in the presence of test compound and incubated for 7 days. […] Therefore, antiviral effect or cytoprotection is observed when compounds prevent virus replication. […] Cytoprotection and compound cytotoxicity are assessed by MTS (CellTiter®96 Reagent, Promega, Madison WI) dye reduction. […]
FYI, pIC50 means -log10 of a concentration in mol per litre.

What does the record list as pIC50 for N#C[C@@]1(c2ccc3c(N)ncnn23)O[C@H](CO)[C@@H](O)[C@H]1O [Compound 1] ?
5.77

Okay, and C[C@@]1(c2ccc3c(N)ncnn23)O[C@H](CO)[C@@H](O)[C@H]1O [Compound 14] ?
5.28
